# collection of Ki values tested on Adenosine receptor A2a (Rattus norvegicus, UniProt P30543)
# Sequence (P30543 whole entry): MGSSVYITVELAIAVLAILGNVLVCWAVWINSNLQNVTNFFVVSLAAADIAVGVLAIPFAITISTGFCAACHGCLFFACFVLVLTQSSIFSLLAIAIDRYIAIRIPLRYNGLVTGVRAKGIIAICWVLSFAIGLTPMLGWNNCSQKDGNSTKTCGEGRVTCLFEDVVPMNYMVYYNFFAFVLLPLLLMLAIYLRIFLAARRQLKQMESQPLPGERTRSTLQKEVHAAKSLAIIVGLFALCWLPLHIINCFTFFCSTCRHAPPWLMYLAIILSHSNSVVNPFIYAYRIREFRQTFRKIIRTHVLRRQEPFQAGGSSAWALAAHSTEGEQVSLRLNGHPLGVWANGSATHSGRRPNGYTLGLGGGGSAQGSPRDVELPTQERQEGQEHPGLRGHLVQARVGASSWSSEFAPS

These recorded examples may help you get a feel for the data.
Cc1c(C)n([C@H](C)c2ccccc2)c2nc(-c3ccc(Cl)c(Cl)c3)nc(N)c12 = > 30 µM
Cc1c(C)n([C@@H](C)c2ccccc2)c2nc(-c3ccccc3)[nH]c(=O)c12 = > 30 µM
O=C1Nc2nc[nH]c(=O)c2C12CCCC2 = 346 µM

Now for another entry.
Prompt: Param readout = Ki; param system = Adenosine receptor A2a (Rattus norvegicus, UniProt P30543); param query = C[C@H](c1ccccc1)N1C(=O)C2(CCCC2)c2c(O)nc(-c3ccccc3)nc21 ; response: value
Completion: > 30 µM

###

Biological target: Adenosine receptor A1 (Rattus norvegicus)
Sequence (P25099 whole entry): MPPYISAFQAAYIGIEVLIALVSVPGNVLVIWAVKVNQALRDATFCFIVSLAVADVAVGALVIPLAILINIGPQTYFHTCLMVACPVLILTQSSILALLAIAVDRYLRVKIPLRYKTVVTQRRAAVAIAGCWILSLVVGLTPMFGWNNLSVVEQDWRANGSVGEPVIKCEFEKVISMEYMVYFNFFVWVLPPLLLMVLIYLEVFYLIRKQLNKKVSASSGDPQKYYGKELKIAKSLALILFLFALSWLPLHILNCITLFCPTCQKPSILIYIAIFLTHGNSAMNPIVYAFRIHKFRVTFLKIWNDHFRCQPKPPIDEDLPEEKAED
Assay: Radioligand binding assay for [3H]-PIA affinity towards Adenosine A1 receptor of rat cerebral cortical membrane
Please note: Ki exactly at 300 nM is false. Only values below 300 nM get true.

For orientation, consider the following solved cases.
Cc1[nH]c2nc(-c3ccccc3)nc(N[C@@H](C)c3ccccc3)c2c1C = false
Cc1c(C)n([C@@H](C)c2ccccc2)c2nc(-c3ccccc3)[nH]c(=O)c12 = false
C[C@H](c1ccccc1)n1c2ccccc2c2c(N)nc(-c3ccccc3)nc21 = true

Moving on to another molecule below.
Prompt: Ki under 300 nM? Item: O=C1N(c2ccccc2)c2nc[nH]c(=O)c2C12CCCC2
Completion: false

###

# collection of Ki values tested on Adenosine receptor A2a (Rattus norvegicus, UniProt P30543)
Give a bare numeral; the unit µM is implied.

Cc1c(C)n([C@H](C)c2ccccc2)c2nc(-c3cccc(Cl)c3)nc(N)c12 = 16.3

Now for another entry.
Prompt: Give the measured Ki of Cc1c(C)n([C@H](C)c2ccccc2)c2nc(-c3ccccc3)nc(N)c12 .
Completion: 81

###

Target: Adenosine receptor A1 (Rattus norvegicus, UniProt P25099)
In this section, each of the compounds is paired with its reported pKi.
# reply with the number alone; pKi is -log10 of concentration in mol/L

COc1cccc(-c2nc(N)c3c(C)c(C)n([C@H](C)c4ccccc4)c3n2)c1 = 7.08
Cc1c(C)n([C@H](C)c2ccccc2)c2nc(-c3ccc(Cl)c(Cl)c3)nc(N)c12 = 6.48
CC(c1ccccc1)n1c2ccccc2c2c(N)ncnc21 (configuration not stated) = 5.95
C[C@@H](c1ccccc1)n1c2ccccc2c2c(N)nc(-c3ccccc3)nc21 = 7.19

Now for another entry.
Prompt: Param readout = pKi; param system = Adenosine receptor A1 (Rattus norvegicus, UniProt P25099); param query = Cc1c(C)n([C@@H](C)c2ccccc2)c2nc(-c3ccccc3)nc(N)c12 ; response: value
Completion: 8.33
